- measurementTarget: hemagglutinin (HA) of influenza virus B/Lee/40 (Old) (influenza B virus) (UniProt P03460)
- Sequence (P03460 16-584 limits assumed): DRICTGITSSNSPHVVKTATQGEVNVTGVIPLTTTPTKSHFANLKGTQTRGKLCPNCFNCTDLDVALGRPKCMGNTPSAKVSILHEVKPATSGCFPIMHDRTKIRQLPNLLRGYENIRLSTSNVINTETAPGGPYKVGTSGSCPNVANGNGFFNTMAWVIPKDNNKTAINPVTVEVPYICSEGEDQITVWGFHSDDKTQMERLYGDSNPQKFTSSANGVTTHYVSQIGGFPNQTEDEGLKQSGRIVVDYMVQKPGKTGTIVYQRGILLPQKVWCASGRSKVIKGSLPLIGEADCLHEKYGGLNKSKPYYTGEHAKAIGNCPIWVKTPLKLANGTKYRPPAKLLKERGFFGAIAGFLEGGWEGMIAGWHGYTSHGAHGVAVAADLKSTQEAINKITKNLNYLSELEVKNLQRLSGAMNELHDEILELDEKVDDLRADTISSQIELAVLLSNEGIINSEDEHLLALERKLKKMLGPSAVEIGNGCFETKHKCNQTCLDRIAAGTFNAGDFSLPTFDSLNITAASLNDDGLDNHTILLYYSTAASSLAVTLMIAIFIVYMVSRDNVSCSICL
- assayMethodText: cell-based or functional assay
observedProperty: neutralization titer (nM)
The response must be a number in nM with no trailing unit.

Exercise: Which neutralization titer value belongs to MD1224 (VHH) EVQLVESGGGLVQPGGSLKLSCAASGFTFSTSWMYWLRQAPGKGLEWVSVINTDGGTYYADSVKDRFTISRDNAKDTLYLQMSSLKSEDTAVYYCAKDWGGPEPTRGQGTQVTVSSAAAGGGGSGGGGSGGGGSGGGGSGGGGSGGGGSGGGGSEVQLVESGGGLVQPGGSLKLSCAASGFTFSTSWMYWLRQAPGKGLEWVSVINTDGGTYYADSVKDRFTISRDNAKDTLYLQMSSLKSEDTAVYYCAKDWGGPEPTRGQGTQVTVSS ?
Key: 33
